- target_desc: CCR5 (human)
- test_description: 12-point Scatchard analysis, 0.03 nM 125I-RANTES on HOS CCR5 cells and parental line, 4°C, 2 hours
readout: Kd (nM)
Answer with a number only, understood to be in nM.

-- ask Value lookup for Kd; key = RANTES (from UniProt P13236 24-92) (ligand)
-- reply 1
